species on record: Macaca mulatta; assay: Agonist activity at monkey MrgX2 receptor at 10 uM relative to cortistatin-14; format: functional
Active and inactive are the calls of the source. The calls are words filed in the database; no cut-off is given here.
outcomeMeasure: Efficacy

Look over these answered cases.
compound | measured
CC(C)[C@H]1C(=O)Nc2ccc(NC3CCCCCC3)cc2-c2nc3cc(C(=O)N4CCCN(C)CC4)ccc3n21 | 50%
CC(C)[C@H]1C(=O)Nc2ccc(N3CCN(Cc4ccccc4)CC3)cc2-c2nc3cc(C(=O)N(C)C4CCN(C)CC4)ccc3n21 | 133%
CCC(C)[C@H]1C(=O)Nc2ccc(NCCOCCOCCN)cc2-c2nc3cc(C(=O)NCc4cccc(C(F)(F)F)c4)ccc3n21 (stereo not given in full) | inactive
CC(C)[C@H]1C(=O)Nc2ccc(NCCN3CCCCC3)cc2-c2nc3cc(C(=O)N4CCN(c5ccc(F)cc5)CC4)ccc3n21 | inactive
CCC(C)[C@H]1C(=O)Nc2ccc(N3CCC(NC(C)=O)C3)cc2-c2nc3cc(C(=O)NCc4cccc(C(F)(F)F)c4)ccc3n21 (stereo not given in full) | 27%

Prompt: Suppose we examine the compound CCC(C)[C@H]1C(=O)Nc2ccc(NCCCN(C)C)cc2-c2nc3cc(C(=O)NCc4cccc(C(F)(F)F)c4)ccc3n21 (stereo not given in full) ; what Efficacy value has been reported?
Completion: 85%

Source of measurements: ChEMBL document CHEMBL1153297
